Biological target: HIV-1 integrase wild-type (IN1-288) (HIV-1, UniProt P12497 P12497:1148-1435)
Test: inhibition; first activity column (headed strand transfer); other column 0.095
Conditions: G4
pIC50: −log10 of the molar value.

[
  {
    "binder": "GTGGTGGGTGGGTGGGT (ssDNA, 3'-cholesterol via triglycyl linker) [T30075]",
    "pIC50": 6.96
  }
]
